Data origin, for the record: ChEMBL document CHEMBL1938236

# System: Plasmodium falciparum
# method-summary: Inhibition of Plasmodium falciparum DHFR assessed as oxidation of NADPH to NADP+ at 10 uM after 15 mins spectrophotometric assay
recorded-metric: inhibition (%)

A. CCc1nnc(NC(=O)CCc2ccc(S(=O)(=O)Nc3ccc(F)c(Cl)c3)cc2)s1
B. O=C(Nc1ccc2c(c1)OCCO2)c1ccc(S(=O)(=O)NCCc2ccccc2)cc1
C. CCc1nnc(NC(=O)CCc2ccc(S(=O)(=O)NCCc3ccccc3)cc2)s1
input: Put the items in sequence by inhibition, from largest down. Put the labels in the requested order and write them down.
output: A, C, B

P. COc1ccc(NS(=O)(=O)c2ccc(CCC(=O)Nc3ccc4c(c3)OCCO4)cc2)cc1OC
Q. CCc1nc(N)nc(N)c1-c1ccc(Cl)cc1
R. O=C(CCc1ccc(S(=O)(=O)NCCc2ccccc2)cc1)Nc1nc2ccccc2s1
S. COc1cccc(NS(=O)(=O)c2ccc(CCC(=O)Nc3ccc4c(c3)OCCO4)cc2)c1
input: List by increasing inhibition. Put the labels in the requested order and write them down.
output: S, P, R, Q
(S: 9.3%, P: 23.2%, R: 37.9%, Q: 98.9%)
